Attribution: ChEMBL document CHEMBL5729054

biological target: Rho-associated protein kinase 2 (Homo sapiens, UniProt O75116); experiment: In Vitro Assay: The effectiveness of compounds of the present invention as ROCK inhibitors can be determined in a 30 μL assay containing 20 mM HEPES, pH 7.5, 20 mM MgCl2, 0.015% Brij-35, 4 mM DTT, 5 μM ATP and 1.5 μM peptide substrate (FITC-AHA-AKRRRLSSLRA-OH) (SEQ ID No. 1). Compounds were dissolved in DMSO so that the final concentration of DMSO was <2%, and the reaction was initiated with Rho kinase variants. After incubation, the reaction was terminated by the addition of EDTA and the phosphorylated and non-phosphorylated peptides separated using a LABCHIP® 3000 Reader (Caliper Life Sciences). […] Compounds were tested in dose-response format, and the inhibition of kinase activity was calculated at each concentration of compound. The inhibition data were fit using a curve-fitting program to determine the IC50; i.e., the concentration of compound required to inhibit 50% of kinase activity.
Sequence (O75116 whole entry, looked up, change not shown): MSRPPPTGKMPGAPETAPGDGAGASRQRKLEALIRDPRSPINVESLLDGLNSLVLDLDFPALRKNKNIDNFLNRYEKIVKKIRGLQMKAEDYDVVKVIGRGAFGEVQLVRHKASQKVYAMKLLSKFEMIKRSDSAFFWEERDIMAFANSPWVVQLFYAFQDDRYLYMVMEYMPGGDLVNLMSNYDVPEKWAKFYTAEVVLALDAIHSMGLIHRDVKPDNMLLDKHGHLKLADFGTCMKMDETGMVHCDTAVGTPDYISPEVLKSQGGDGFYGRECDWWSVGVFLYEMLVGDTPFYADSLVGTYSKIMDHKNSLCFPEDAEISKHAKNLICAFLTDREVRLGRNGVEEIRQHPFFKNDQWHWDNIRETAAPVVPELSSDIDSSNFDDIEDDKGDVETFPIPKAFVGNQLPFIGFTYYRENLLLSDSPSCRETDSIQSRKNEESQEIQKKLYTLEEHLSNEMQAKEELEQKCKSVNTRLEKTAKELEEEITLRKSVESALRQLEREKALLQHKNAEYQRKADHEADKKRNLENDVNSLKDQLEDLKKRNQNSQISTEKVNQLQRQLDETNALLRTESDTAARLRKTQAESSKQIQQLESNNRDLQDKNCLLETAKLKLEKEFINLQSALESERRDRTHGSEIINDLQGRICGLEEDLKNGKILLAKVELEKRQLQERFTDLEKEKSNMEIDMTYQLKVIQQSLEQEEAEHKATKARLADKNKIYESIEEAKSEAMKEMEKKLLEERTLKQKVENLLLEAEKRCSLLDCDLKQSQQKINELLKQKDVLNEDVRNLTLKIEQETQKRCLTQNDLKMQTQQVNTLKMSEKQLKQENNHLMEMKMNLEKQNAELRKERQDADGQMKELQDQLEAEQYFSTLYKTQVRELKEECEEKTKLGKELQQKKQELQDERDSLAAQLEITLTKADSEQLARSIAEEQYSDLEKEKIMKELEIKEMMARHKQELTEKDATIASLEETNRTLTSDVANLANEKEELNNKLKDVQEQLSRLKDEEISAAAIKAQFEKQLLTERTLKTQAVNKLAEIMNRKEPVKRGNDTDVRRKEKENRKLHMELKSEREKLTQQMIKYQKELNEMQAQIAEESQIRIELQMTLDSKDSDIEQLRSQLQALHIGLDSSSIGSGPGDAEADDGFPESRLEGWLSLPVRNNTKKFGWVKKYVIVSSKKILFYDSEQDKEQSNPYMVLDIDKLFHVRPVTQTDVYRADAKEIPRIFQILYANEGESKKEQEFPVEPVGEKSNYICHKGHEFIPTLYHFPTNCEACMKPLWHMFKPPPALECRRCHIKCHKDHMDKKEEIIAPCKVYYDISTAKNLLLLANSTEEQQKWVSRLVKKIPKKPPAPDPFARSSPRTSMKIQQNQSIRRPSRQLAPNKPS
Assay metric: IC50 (µM)
A number alone suffices; assume µM.

I am curious: what IC50 value has been reported for N#Cc1cnc(NC2CC3(C2)CC(Oc2ncccc2C(N)=O)C3)nc1 (stereo unspecified) ?
1.51
